# Test system: MS2 coat protein
# METHOD DESCRIPTION: apparent Kd, MS2 coat protein; higher = weaker binding; RNA-MaP array; tryptophan 2.4 mM where present
# CONDITIONS: ligand present: tryptophan; designed as: ON switch for tryptophan
Reported apparent Kd values for a set of sequences
Please answer using a numeric value trailed by its unit.

# RESIDUE CODES, MEASUREMENT KIND, MEASUREMENT
data = [
    ("GGUUACUCUACGGCCGCCACUGGGCAUGUAAAUAACAUGAGGAUCACCCAUGUGGAAUAAAAUUACAGGACCGGGUAGUGUAACC", "apparent Kd", "0.0402 µM"),
    ("UCGAAUGCGGCGGCCGCCACUCGCGGAUAACGAUAGCUUAACAUGAGGAUCACCCAUGUGUCAUGGAGGACCGGGCCCAUACCGU", "apparent Kd", "0.0211 µM"),
    ("AAAUUAUAGGCGGCCGCCACUAGAGUUAGGCUUAUGUACUGGGUAACAUGAGGAUCACCCAUGUAUAGGACCGGGCCAUAAUAAA", "apparent Kd", "0.0526 µM"),
]

Now take the following sequence into account.
Quick one: apparent Kd of UAAACUACACAUGAGGAUCACCCAUGUGGCCGAGGACCGGUACGGCCGCCACUCGUGUGUUAAUAAAAGAACCGCAAAGUUCUUU ?
0.0759 µM
